- ASSAY_SYSTEM: HLA-B*53:01
- MEASUREMENT_NOTES: IEDB peptide-MHC binding, purified MHC/competitive/radioactivity; filed as Kd, often an IC50 or EC50 that approximates it; bounds were set here for any values at or beyond the usual limits of such assays
- STUDY_CONDITIONS: source organism: Dengue virus 4 Philippines/H241/1956
MEASURE_NAME: pKd
Answers are plain numbers, as −log10 of the molar value.

Can you look up the measured pKd of HMEGVFHTMW for me?
7.46

---

- ASSAY_SYSTEM: HLA-A*24:03
- MEASUREMENT_NOTES: IEDB peptide-MHC binding, purified MHC/direct/fluorescence; filed as Kd, often an IC50 or EC50 that approximates it; bounds were set here for any values at or beyond the usual limits of such assays
- STUDY_CONDITIONS: source organism: Pseudomonas aeruginosa UCBPP-PA14
pKd: −log10 of the molar value.
MEASURE_NAME: pKd

Lookup: pKd / HLA-A*24:03 / YTFCRLNVK
≤ 4.70

Cited source for all entries: the Immune Epitope Database (IEDB)
